Origin of values: patent US7714146B2

TESTED_SYSTEM: human c-KIT (Thr544-Val976) (Homo sapiens, UniProt P10721)
Construct: human c-KIT (Thr544-Val976); GST (N); purchased Cell Signaling Technology; host or cells: baculovirus expression system
Sequence (P10721 544-976): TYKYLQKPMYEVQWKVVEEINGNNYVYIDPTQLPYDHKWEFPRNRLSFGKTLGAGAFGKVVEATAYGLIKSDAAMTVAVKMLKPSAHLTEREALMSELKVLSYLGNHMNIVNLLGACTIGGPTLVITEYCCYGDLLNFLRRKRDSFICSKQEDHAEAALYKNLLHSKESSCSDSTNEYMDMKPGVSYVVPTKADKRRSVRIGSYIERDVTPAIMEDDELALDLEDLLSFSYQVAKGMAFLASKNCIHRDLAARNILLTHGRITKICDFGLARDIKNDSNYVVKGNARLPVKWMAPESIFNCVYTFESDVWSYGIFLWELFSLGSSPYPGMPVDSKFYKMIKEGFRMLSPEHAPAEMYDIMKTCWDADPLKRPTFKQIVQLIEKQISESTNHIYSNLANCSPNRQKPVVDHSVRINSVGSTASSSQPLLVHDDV
METHOD: c-KIT kinase assay (HTScan kit, DELFIA)
Type: biochemical
ASSAY_CONTEXT: compound at 0.1 μM; read-out: c-KIT 0.1 μM, % of inhibition relative to control
criterion met means recorded inhibition at 0.1 µM is 50% or above; criterion not met means it is below 50%.

[ask] Hello, I need to know if CCN(CC)CCCOc1ccccc2c(C=C3C(=O)Nc4ccc(F)cc43)cc(C)c1-2 [Compound 90] has measured inhibition at 0.1 µM not below 50%. Thanks!
[reply] criterion met

[ask] Now the same for Cc1[nH]c(/C=C2\C(=O)Nc3ccc(F)cc32)c2ccc(=O)ccc12 [Compound 63]
[reply] criterion met

[ask] Now the same for O=C1Nc2ccc(F)cc2/C1=C/c1c2cccccc-2oc1=O [Compound 62]
[reply] criterion not met

[ask] Now the same for Cc1cc(C)c2ccc(/C=C3/C(=O)N(Cc4ccccc4)c4ccccc43)c-2c(C)c1 [Compound 10]
[reply] criterion not met

[ask] Now the same for COc1ccc2c(c1)NC(=O)/C2=C/c1ccc2cccccc1-2 [Compound 30]
[reply] criterion not met

[ask] Now the same for COC(=O)c1cc(/C=C2\C(=O)Nc3ccccc32)c2cccccc1-2 [Compound 16]
[reply] criterion not met

[ask] Now the same for O=C1Nc2ccccc2/C1=C\c1c2cccccc-2[nH]c1=O [Compound 27]
[reply] criterion not met

[ask] Now the same for O=C1Nc2cc(Br)ccc2/C1=C\c1ccc2cccccc1-2 [Compound 28]
[reply] criterion not met

[ask] Now the same for O=C1Nc2ccc(Br)cc2/C1=C/c1ccc2cccccc1-2 [Compound 6]
[reply] criterion not met

[ask] Now the same for Cc1cc(C=C2C(=O)Nc3ncccc32)c2ccccc(OCCCN(C)C)c1-2 [Compound 104]
[reply] criterion not met

[ask] Now the same for O=C1Nc2ccc(F)cc2/C1=C/c1cc(F)c2cccccc1-2 [Compound 60]
[reply] criterion not met

[ask] Now the same for Cc1cc(C)c2ccc(/C=C3/C(=O)Nc4ccccc43)c-2c(C)c1 [Compound 9]
[reply] criterion not met

[ask] Now the same for Cc1cc(C=C2C(=O)Nc3ccc(S(=O)(=O)NCCCN4CCN(C)CC4)cc32)c2cccccc1-2 [Compound 82]
[reply] criterion not met

[ask] Now the same for Cc1cc(/C=C2\C(=O)Nc3ccc(F)cc32)c2ccccc(OCCCN(C)C)c1-2 [Compound 95]
[reply] criterion met

[ask] Now the same for Cc1cc(/C=C2/C(=O)N(Cc3ccccc3)c3ccccc32)c2c(C)ccc(C(C)C)cc1-2 [Compound 13]
[reply] criterion met

[ask] Now the same for O=C1Nc2ccc(F)cc2/C1=C\c1cc2cccccc-2c1F [Compound 56]
[reply] criterion not met

[ask] Now the same for CCOC(=O)N1CCC(Nc2ccc3c(c2)/C(=C\c2cc(C)c4c(OCCCN(C)C)ccccc2-4)C(=O)N3)CC1 [Compound 85]
[reply] criterion not met

[ask] Now the same for Cc1ccc2c(c1)/C(=C\c1c3cccccc-3nc1N)C(=O)N2 [Compound 54]
[reply] criterion not met

[ask] Now the same for O=C1Nc2ccc(F)cc2/C1=C\c1cc(Br)c2cccccc1-2 [Compound 51]
[reply] criterion met

[ask] Now the same for COc1ccc2c(c1)/C(=C\c1ccc3cccccc1-3)C(=O)N2 [Compound 43]
[reply] criterion not met

[ask] Now the same for CCc1cc(C=C2C(=O)Nc3ccc(S(=O)(=O)NCCCN4CCN(C)CC4)cc32)c2cccccc1-2 [Compound 83]
[reply] criterion not met

[ask] Now the same for O=C1Nc2ccc(F)cc2/C1=C\c1ccccc2cccc1-2 [Compound 52]
[reply] criterion not met

[ask] Now the same for Cc1cc(C=C2C(=O)Nc3ccccc32)c2cccccc1-2 [Compound 37]
[reply] criterion met

[ask] Now the same for Cc1cc(/C=C2/C(=O)Nc3ccc(F)cc32)c2ccccc(OCCCN(C)C)c1-2 [Compound 68]
[reply] criterion not met

[ask] Now the same for O=C1Nc2ccc(Br)cc2/C1=C\c1ccc2cccccc1-2 [Compound 7]
[reply] criterion not met

[ask] Now the same for Cc1cc(/C=C2\C(=O)Nc3ccc(F)cc32)c2cccccc1-2 [Compound 39]
[reply] criterion met

[ask] Now the same for O=C1Nc2ccccc2/C1=C/c1cc2cccccc-2c1 [Compound 33]
[reply] criterion met

[ask] Now the same for O=C1Nc2ccc(F)cc2/C1=C\c1cc2cccccc-2c1 [Compound 40]
[reply] criterion met

[ask] Now the same for Cc1cc(/C=C2/C(=O)Nc3ccc(F)cc32)c2cccccc1-2 [Compound 38]
[reply] criterion met

[ask] Now the same for O=C1Nc2cc(Br)ccc2/C1=C/c1ccc2cccccc1-2 [Compound 29]
[reply] criterion not met

[ask] Now the same for O=C1Nc2ccc(F)cc2/C1=C/c1cc(Br)c2cccccc1-2 [Compound 45]
[reply] criterion met

[ask] Now the same for Cc1cc(C=C2C(=O)Nc3cc(C(F)(F)F)ccc32)c2ccccc(OCCCN(C)C)c1-2 [Compound 94]
[reply] criterion not met

[ask] Now the same for O=C1C(=Cc2ccc3cccccc2-3)c2ccccc2N1Cc1ccccc1 [Compound 2]
[reply] criterion not met

[ask] Now the same for COC(=O)c1cc(/C=C2\C(=O)Nc3ccc(F)cc32)c2cccccc1-2 [Compound 76]
[reply] criterion not met
